target.system: Ribosomal protein S6 kinase alpha-5 (Homo sapiens) (UniProt O75582)
Sequence (O75582 whole entry, looked up): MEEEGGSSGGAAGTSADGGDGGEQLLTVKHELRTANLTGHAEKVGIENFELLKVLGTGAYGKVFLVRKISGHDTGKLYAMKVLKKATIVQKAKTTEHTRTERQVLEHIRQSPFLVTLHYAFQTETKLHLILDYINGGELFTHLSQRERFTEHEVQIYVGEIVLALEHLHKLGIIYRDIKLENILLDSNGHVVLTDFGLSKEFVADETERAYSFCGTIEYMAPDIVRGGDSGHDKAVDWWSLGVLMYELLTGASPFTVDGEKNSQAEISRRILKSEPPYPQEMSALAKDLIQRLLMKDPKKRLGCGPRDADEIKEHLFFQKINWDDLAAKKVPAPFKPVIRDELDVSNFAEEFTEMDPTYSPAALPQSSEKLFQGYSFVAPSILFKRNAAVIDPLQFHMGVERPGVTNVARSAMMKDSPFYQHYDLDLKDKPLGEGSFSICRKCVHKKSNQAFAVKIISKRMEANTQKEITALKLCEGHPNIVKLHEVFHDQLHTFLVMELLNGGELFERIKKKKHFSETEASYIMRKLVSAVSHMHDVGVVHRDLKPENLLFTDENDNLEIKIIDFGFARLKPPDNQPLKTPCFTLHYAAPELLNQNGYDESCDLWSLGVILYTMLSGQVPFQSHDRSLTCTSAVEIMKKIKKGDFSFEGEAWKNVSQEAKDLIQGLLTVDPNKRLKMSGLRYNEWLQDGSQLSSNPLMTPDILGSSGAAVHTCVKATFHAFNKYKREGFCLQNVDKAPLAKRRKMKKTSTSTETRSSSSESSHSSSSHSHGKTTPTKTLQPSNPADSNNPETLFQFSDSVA
condition.context: at 0.1 µM
reported.endpoint: inhibition (%)
Give the value in % but do not write % after it.

Worked cases, answers included:
{"molecule": "CCNC(=O)O[C@H]1CN[C@H](C#Cc2cc3ncnc(Nc4ccc(OCc5cccc(F)c5)c(Cl)c4)c3s2)C1", "inhibition [%]": 3.18}
{"molecule": "COC(=O)c1sc(-n2cnc3cc(OC)c(OC)cc32)cc1OCc1ccccc1C(F)(F)F", "inhibition [%]": 3.01}

Report inhibition for COc1ccc(-c2cc(-c3c[nH]nc3-c3ccccn3)ccn2)cc1 tested on Ribosomal protein S6 kinase alpha-5 (Homo sapiens) (UniProt O75582).
4.28

Report inhibition for CCn1c(-c2nonc2N)nc2cnc(Oc3cccc(NC(=O)c4ccc(N(C)C)cc4)c3)cc21 tested on Ribosomal protein S6 kinase alpha-5 (Homo sapiens) (UniProt O75582).
60.2

Report inhibition for Cc1cccc(Nc2ncc(-c3ccccc3)o2)c1 tested on Ribosomal protein S6 kinase alpha-5 (Homo sapiens) (UniProt O75582).
2.55

Report inhibition for CCn1c(-c2nonc2N)nc2c(C#CC(C)(C)O)ncc(OC3CCNCC3)c21 tested on Ribosomal protein S6 kinase alpha-5 (Homo sapiens) (UniProt O75582).
2.46

Report inhibition for Fc1ccc(-c2cc(-c3c[nH]nc3-c3ccccn3)ccn2)cc1 tested on Ribosomal protein S6 kinase alpha-5 (Homo sapiens) (UniProt O75582).
2.42

Report inhibition for Cc1cccc2c1NC(=O)/C2=N\Nc1ccc(S(N)(=O)=O)cc1 tested on Ribosomal protein S6 kinase alpha-5 (Homo sapiens) (UniProt O75582).
2.97

Report inhibition for CCn1cc(-c2ccnc3[nH]ccc23)c(-c2cccc(NC(=O)Nc3ccc(OCc4ccccc4)cc3)c2)n1 tested on Ribosomal protein S6 kinase alpha-5 (Homo sapiens) (UniProt O75582).
-0.53

Report inhibition for COc1ccc2[nH]c3c4[nH]c5ccc(OC)cc5c4c4c(c3c2c1)C(=O)NC4=O tested on Ribosomal protein S6 kinase alpha-5 (Homo sapiens) (UniProt O75582).
18.7

Report inhibition for Cc1ccc(O)cc1Nc1ccnc2cc(-c3ccccn3)ccc12 tested on Ribosomal protein S6 kinase alpha-5 (Homo sapiens) (UniProt O75582).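 Further: mean inhibition of MSK1 reported, from a GSK PKIS inhibitor set screen.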
4.25

====

Reported inhibition is given for each of the following compounds.
target.system: Cyclin-dependent kinase 2 (Homo sapiens) (UniProt P24941);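 further: mean inhibition of CDK2 in complex with cyclin E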
condition.context: at 0.1 µM
Give the value in % but do not write % after it.

Worked cases, answers included:
{"item.smiles": "CCn1c(-c2nonc2N)nc2ccccc21", "target.system": "Cyclin-dependent kinase 2 (Homo sapiens) (UniProt P24941)", "readout.number": 1.38}
{"item.smiles": "COc1cc(Nc2nccc(Nc3ccc4c(C)n[nH]c4c3)n2)cc(OC)c1OC", "target.system": "Cyclin-dependent kinase 2 (Homo sapiens) (UniProt P24941)", "readout.number": 2.32}
{"item.smiles": "CCN(CC)S(=O)(=O)c1ccc(OC)c(Nc2ncc(-c3ccccc3)o2)c1", "target.system": "Cyclin-dependent kinase 2 (Homo sapiens) (UniProt P24941)", "readout.number": 3.09}
{"item.smiles": "CCN1CCC(CC(=O)Nc2n[nH]c3nnc(-c4cccc(F)c4F)cc23)CC1", "target.system": "Cyclin-dependent kinase 2 (Homo sapiens) (UniProt P24941)", "readout.number": 1.12}
{"item.smiles": "COc1cccc(-c2c[nH]c3c(N/N=C/c4ccncc4)ncnc23)c1", "target.system": "Cyclin-dependent kinase 2 (Homo sapiens) (UniProt P24941)", "readout.number": 9.46}

So what's the measured inhibition for this one? CCNC(=O)O[C@H]1CN[C@H](C#Cc2cc3ncnc(Nc4ccc(OCc5cccc(F)c5)c(Cl)c4)c3s2)C1
2.61

So what's the measured inhibition for this one? CN(C)CCOc1ccc(-c2nc(-c3ccncc3)c(-c3ccc4c(c3)CC/C4=N\O)[nH]2)cc1
6.01

So what's the measured inhibition for this one? Cc1cccc2c1NC(=O)/C2=N\Nc1ccc(S(N)(=O)=O)cc1
2.45

So what's the measured inhibition for this one? O=C(O[C@H]1CN[C@H](C#Cc2cc3ncnc(Nc4ccc(Cc5ccccc5)cc4)c3s2)C1)N1CCOCC1
1.15

====

Reported inhibition is given for each of the following compounds.
target.system: Serine/threonine-protein kinase 3 (Homo sapiens)
Sequence (whole entry): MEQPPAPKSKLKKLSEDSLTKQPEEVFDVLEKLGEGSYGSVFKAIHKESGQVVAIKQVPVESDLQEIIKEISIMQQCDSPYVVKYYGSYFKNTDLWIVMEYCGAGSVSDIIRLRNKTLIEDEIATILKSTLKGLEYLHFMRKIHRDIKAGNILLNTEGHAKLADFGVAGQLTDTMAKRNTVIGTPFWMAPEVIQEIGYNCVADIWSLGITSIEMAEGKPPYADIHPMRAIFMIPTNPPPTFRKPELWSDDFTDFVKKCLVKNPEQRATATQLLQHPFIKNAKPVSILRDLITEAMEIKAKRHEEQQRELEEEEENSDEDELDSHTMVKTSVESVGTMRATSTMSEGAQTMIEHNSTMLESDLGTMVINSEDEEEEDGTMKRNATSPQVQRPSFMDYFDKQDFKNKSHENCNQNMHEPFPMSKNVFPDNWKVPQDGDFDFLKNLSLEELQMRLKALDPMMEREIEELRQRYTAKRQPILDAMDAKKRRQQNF
condition.context: at 1 µM
Give the value in % but do not write % after it.

Report inhibition for CCn1c(-c2nonc2N)nc2cnc(Oc3cccc(NC(=O)c4ccc(N(C)C)cc4)c3)cc21 tested on Serine/threonine-protein kinase 3 (Homo sapiens).
2.32

Report inhibition for COc1cc(/C=N/Nc2ncnc3[nH]ncc23)ccc1O tested on Serine/threonine-protein kinase 3 (Homo sapiens).
15.1

Report inhibition for CCCN(CCS(C)(=O)=O)Cc1ccc(-c2ccc3ncnc(Nc4ccc(OCc5cccc(F)c5)c(Cl)c4)c3c2)o1 tested on Serine/threonine-protein kinase 3 (Homo sapiens).
2.11

Report inhibition for c1ccc(-c2nc3n(c2-c2ccc4c(c2)OCO4)CCC3)nc1 tested on Serine/threonine-protein kinase 3 (Homo sapiens).
1.9

Report inhibition for Nc1nc(-c2ccc(F)cc2)c(-c2ccc3ncccc3n2)s1 tested on Serine/threonine-protein kinase 3 (Homo sapiens).
5.82

Report inhibition for COc1ccc(-c2nn3ncccc3c2-c2ccnc(Nc3ccc4c(c3)OCCO4)n2)cc1 tested on Serine/threonine-protein kinase 3 (Homo sapiens).
-0.28

Report inhibition for CNC(=O)c1cccc(C#Cc2cncnc2Nc2ccc(OCc3cccc(F)c3)c(Cl)c2)c1 tested on Serine/threonine-protein kinase 3 (Homo sapiens).
7.85

Report inhibition for CCN1CCC(CC(=O)Nc2n[nH]c3nnc(-c4cccc(F)c4F)cc23)CC1 tested on Serine/threonine-protein kinase 3 (Homo sapiens).
5.19

Report inhibition for [O-][S+]1CCN(Cc2ccc(-c3ccc4ncnc(Nc5ccc(OCc6cccc(F)c6)c(Cl)c5)c4c3)o2)CC1 tested on Serine/threonine-protein kinase 3 (Homo sapiens).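 Further: each value is the mean inhibition of MST2.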
9.49

====

target.system: Mitogen-activated protein kinase 13 (Homo sapiens) (UniProt O15264);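 further: mean inhibition of p38delta, screened as part of the GSK PKIS kinase inhibitor set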
Sequence (O15264 whole entry): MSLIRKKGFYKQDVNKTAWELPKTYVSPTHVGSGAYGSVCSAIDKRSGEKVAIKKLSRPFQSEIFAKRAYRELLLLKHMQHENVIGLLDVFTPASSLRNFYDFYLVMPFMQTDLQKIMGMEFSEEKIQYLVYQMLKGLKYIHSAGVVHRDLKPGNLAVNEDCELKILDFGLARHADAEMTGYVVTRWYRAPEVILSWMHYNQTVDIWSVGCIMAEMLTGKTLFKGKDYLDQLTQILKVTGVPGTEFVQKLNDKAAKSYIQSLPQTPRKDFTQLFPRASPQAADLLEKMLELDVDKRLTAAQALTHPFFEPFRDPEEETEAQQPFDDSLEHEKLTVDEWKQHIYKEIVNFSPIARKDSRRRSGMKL
condition.context: at 1 µM
Reported inhibition is given for each of the following compounds.
Give the value in % but do not write % after it.

{"item.smiles": "CC(=O)Nc1cccc(C#Cc2cncnc2Nc2ccc(OCc3cccc(F)c3)c(Cl)c2)c1", "target.system": "Mitogen-activated protein kinase 13 (Homo sapiens) (UniProt O15264)", "reported.endpoint": "inhibition", "readout.number": 2.73}
{"item.smiles": "c1ccc(COc2ccc(Nc3ncnc4ccc(-c5ccco5)cc34)cc2)cc1", "target.system": "Mitogen-activated protein kinase 13 (Homo sapiens) (UniProt O15264)", "reported.endpoint": "inhibition", "readout.number": -0.53}
{"item.smiles": "CNC(=O)c1cncc(/C=C/c2ccccc2Cl)c1", "target.system": "Mitogen-activated protein kinase 13 (Homo sapiens) (UniProt O15264)", "reported.endpoint": "inhibition", "readout.number": -0.14}
{"item.smiles": "NS(=O)(=O)c1ccc(Nc2ncc(-c3ccccc3)o2)cc1", "target.system": "Mitogen-activated protein kinase 13 (Homo sapiens) (UniProt O15264)", "reported.endpoint": "inhibition", "readout.number": 5.86}
{"item.smiles": "O=C(Nc1n[nH]c2cc(-c3ccc(F)cc3)ccc12)C1CC1", "target.system": "Mitogen-activated protein kinase 13 (Homo sapiens) (UniProt O15264)", "reported.endpoint": "inhibition", "readout.number": 4.36}

# evaluate next
So what's the measured inhibition for this one? c1ccc(-c2nc3n(c2-c2ccc4c(c2)OCO4)CCC3)nc1
2.52

====

Reported inhibition is given for each of the following compounds.
target.system: Tyrosine-protein kinase CSK (Homo sapiens) (UniProt P41240);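 further: each value is an averaged inhibition reading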
Sequence (P41240 2-450 limits assumed): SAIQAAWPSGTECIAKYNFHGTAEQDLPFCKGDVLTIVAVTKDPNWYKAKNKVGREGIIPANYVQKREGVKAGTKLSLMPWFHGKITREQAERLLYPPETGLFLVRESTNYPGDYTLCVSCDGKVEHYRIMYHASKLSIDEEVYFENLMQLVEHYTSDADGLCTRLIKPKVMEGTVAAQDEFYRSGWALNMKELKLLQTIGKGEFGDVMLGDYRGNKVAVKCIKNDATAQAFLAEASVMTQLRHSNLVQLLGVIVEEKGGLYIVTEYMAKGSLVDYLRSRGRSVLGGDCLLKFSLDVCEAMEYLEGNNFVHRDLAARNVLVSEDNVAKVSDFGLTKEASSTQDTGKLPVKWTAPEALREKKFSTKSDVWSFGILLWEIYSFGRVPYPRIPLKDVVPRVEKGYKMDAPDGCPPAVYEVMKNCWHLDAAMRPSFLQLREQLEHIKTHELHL
condition.context: at 1 µM
Give the value in % but do not write % after it.

Worked cases, answers included:
{"compound": "CCN1CCC(CC(=O)Nc2n[nH]c3nnc(-c4cccc(F)c4F)cc23)CC1", "inhibition [%]": 4.47}
{"compound": "CC1=C(C(=O)Nc2cc(Cl)c3[nH]ncc3c2)C(c2ccc(C(F)(F)F)cc2)CC(=O)N1 (stereo not given)", "inhibition [%]": 2.47}

# evaluate next
So what's the measured inhibition for this one? Cc1cccc(Nc2ncc(-c3ccccc3)o2)c1
0.89

Provenance of the data: ChEMBL document CHEMBL1961873
